Test system: RAW-Dual (murine macrophage reporter line)
Assay: IRF reporter (Lucia luciferase) activity fold change vs agonist alone; higher = enhanced IRF activity
Details: modulator concentration 10 µM; agonist: 3'3'-cGAMP 10 ug/mL
So basically: IRF reporter at 0.9 or higher? That is true. Lower than 0.9? That is false.

# example entries with known answers
COc1cc(Cl)cc(C=NNC(=O)c2cc(C)n[nH]2)c1O ... false
Br.NC(=O)C(c1ccccc1)(c1ccccc1)[C@@H]1CCN(CCc2ccc3c(c2)CCO3)C1 ... false
CN(C)CC/C=C1\c2ccccc2COc2ccccc21.Cl ... false

Kindly review the next compound as well.
Is it the case that Cc1ccc2sc(NC(=O)c3cccc(N4C(=O)CCC4=O)c3)nc2c1C has IRF reporter reaching or exceeding 0.9?
true

###

List of IRF reporter values.
Test system: RAW-Dual (murine macrophage reporter line)
Experiment: IRF reporter (Lucia luciferase) activity fold change vs agonist alone; higher = enhanced IRF activity
Details: modulator concentration 10 µM; agonist: MPLA […]
No unit in the answer, only the number.

Guide cases for IRF reporter, answers given:
Cc1ccc(OCCCOc2cccc3cccnc23)c(C)c1 ... 2.82
C=CC(=O)Nc1cccc(Oc2nc(Nc3ccc(N4CCN(C)CC4)cc3)nc3ccsc23)c1 ... 0.0904
O=C(Nc1ccc(F)c(F)c1)c1ccnc(OCC2CCOCC2)c1 ... 1.26
O=C(Nc1nc2ccc(Cl)cc2s1)c1ccc(Br)s1 ... 1.09
OC1C=C2CCN3Cc4cc5c(cc4C(C1O)C23)OCO5 (stereo not drawn) ... 1.04

Output IRF reporter of CC(C)N(C(=O)c1ccc(C(=O)NCc2ccc(S(N)(=O)=O)cc2)cc1)C(C)C
1.21

Return the recorded IRF reporter value; entry: CC(C(=O)O)c1ccc2c(c1)[nH]c1ccc(Cl)cc12 (stereo not drawn)
1.05

###

Each record here notes measured NF-kB reporter.
System: RAW-Dual (murine macrophage reporter line)
Assay: NF-kB reporter (SEAP) activity fold change vs agonist alone; higher = enhanced NF-kB activity
Conditions: modulator concentration 10 µM; agonist: MPLA […]
Answer with a bare number; do not write a unit.

CCOc1ccccc1OCCCCOc1cccc(C)c1C ... 0.982

Find the measured NF-kB reporter of CC[C@@H]([C@H](C)O)n1ncn(-c2ccc(N3CCN(c4ccc(OC[C@@H]5CO[C@@](Cn6cncn6)(c6ccc(F)cc6F)C5)cc4)CC3)cc2)c1=O and report it.
1.07

Answer with the recorded NF-kB reporter for the compound listed here: CCOC(=O)N1CCN(C(=O)CSc2nnc(-c3cccc(Cl)c3)o2)CC1
0.974

Answer with the recorded NF-kB reporter of CN(C)C/C=C/C(=O)Nc1cc2c(Nc3ccc(F)c(Cl)c3)ncnc2cc1O[C@H]1CCOC1.O=C(O)/C=C\C(=O)O.O=C(O)/C=C\C(=O)O only.
0.613

Specify NF-kB reporter for NC(N)=NN=Cc1ccc(OS(=O)(=O)c2ccccc2)cc1 and stop.
1.18

Answer with reported NF-kB reporter of Cc1ccc2[nH]c3nc(C)cc(C)c3c(=O)c2c1
0.993

Please indicate NF-kB reporter recorded for O=C(NC1CCCCCC1)c1ccc([N+](=O)[O-])cc1Cl
0.919

Look up and state reported NF-kB reporter for COc1ccc(C(=O)Nc2sc3c(c2C(N)=O)CCCC3)cc1OC
1.09

State its NF-kB reporter: O=C(CSc1nc(-c2ccccc2)c(-c2ccccc2)[nH]1)N1CCOCC1
1.05

###

System: RAW-Dual (murine macrophage reporter line)
Assay: IRF reporter (Lucia luciferase) activity fold change vs agonist alone; higher = enhanced IRF activity
Settings: modulator concentration 10 µM; agonist: LPS 0.1 ug/mL
Readout: IRF reporter
Give the value as a plain number.

Find the measured IRF reporter of CCC(=O)Nc1ccc(NC(=O)c2ccccc2OC)cc1 and report it.
1.25

Output IRF reporter of CC(C)NCC(O)COc1ccccc1C(C)(C)C.Cl (stereo unspecified)
1.02

###

Tested on: RAW-Dual (murine macrophage reporter line)
Assay: NF-kB reporter (SEAP) activity fold change vs agonist alone; higher = enhanced NF-kB activity
Settings: modulator concentration 10 µM; agonist: CpG ODN 1826 0.5 ug/mL
Each entry falls in a class defined on NF-kB reporter; the bands are bin 1 = under 0.9, bin 2 = from 0.9 up to 1, bin 3 = 1 and over

CC(C)c1ccccc1NS(=O)(=O)c1ccccc1 ... bin 1
O=C1CSC(=S)N1N=Cc1ccc(O)c([N+](=O)[O-])c1 ... bin 2
CCN(CCO)CCCOc1ccc2c(Nc3cc(CC(=O)Nc4cccc(F)c4)n[nH]3)ncnc2c1 ... bin 1
Cc1cccc(C(C)C)c1NC(=O)c1ccccc1Br ... bin 2
CN(C)S(=O)(=O)N1CCC(CNC(=O)NC2CCCC2)CC1 ... bin 2
CNC(=O)c1ccccc1Sc1ccc2c(/C=C/c3ccccn3)n[nH]c2c1 ... bin 1

Hi there! Could you help me figure out the category for Cc1cccc(OCCn2cc(C=Nn3cnnc3)c3ccccc32)c1 please?
bin 3

Which category does the recorded NF-kB reporter put CCCCc1nc(C)c(CC(=S)N(C)C)c(=O)n1Cc1ccc(-c2ccccc2-c2nnn[nH]2)cc1 in?
bin 1

Which bin, given its NF-kB reporter, does CCCCCOC(=O)COc1ccc(S(=O)(=O)c2ccc(OCC(=O)OCCCCC)cc2)cc1 occupy?
bin 2

Class? Entry: Cl.N=C1CCCN1Cc1[nH]c(=O)[nH]c(=O)c1Cl
bin 3

Quick check: band for COc1ccc(NC(=O)c2cn(-c3cc(N4CCCCC4)ncn3)cn2)cc1F
bin 3

Which band does COc1cc(C2CC3CC2C(C)C3(C)C)ccc1O (stereo not drawn) fall in?
bin 1

# bin label for Nc1nc2ccc(OC(F)(F)F)cc2s1
bin 2

Field: class (NF-kB reporter) — entry: CC(NC(=O)COc1ccc(C=NNC(=O)c2ccccc2O)cc1)c1ccccc1 (stereo not drawn)
bin 3

Which category fits this record: Cc1cc(C)n(-c2ccc(=O)n(CCNS(=O)(=O)c3ccccc3F)n2)n1
bin 3

Kindly state the category for this compound: NC(=O)c1cccc2cn(-c3ccc([C@@H]4CCCNC4)cc3)nc12
bin 1

Hi, small favor: classify O=C1c2ccccc2C(=O)C1c1ccccc1 by its NF-kB reporter when you get a moment.
bin 3

###

# viability score values compiled below
Tested on: RAW-Dual (murine macrophage reporter line)
Assay: viability score (confluency relative to resting cells, overnight) (fraction); higher = more viable, active = viable (0.7 or more)
Details: modulator concentration 10 µM
Answer using only a numeral; do not append any unit.

CCOC(=O)C1=C(C)NC(C)=C(C(=O)OC)C1c1cccc([N+](=O)[O-])c1 (stereo not drawn) ... 0.985
O=c1cc(O)nc(SCc2c(F)c(F)c(F)c(F)c2F)[nH]1 ... 1
CCOC(=O)C1=C(C)NC(=S)NC1c1cccc(C)c1 (stereo not drawn) ... 0.975
CC12C=CC(CO)(O1)C1C(=O)NC(=O)C12 (stereo not drawn) ... 0.783
CCC(=O)N(CCC(c1ccccc1OC)C1CCOC(C)(C)C1)Cc1ccc(OC)cc1 (stereo not drawn) ... 1.01

# return recorded viability score for input CC(=O)Oc1ccc2c(C)c(Cl)c(=O)oc2c1C
1.01

Answer with the recorded viability score of Cc1ccc(/C(=C\CN2CCCC2)c2ccccn2)cc1.Cl.O only.
0.553

Tell us which viability score value is on record for CN1CCC(=C2c3ccccc3C=Cc3ccccc32)CC1
0.293

// fetch viability score given entry CCOC(=O)C(CCc1ccccc1)NC(C)C(=O)N1Cc2ccccc2CC1C(=O)O.Cl (stereo not drawn)
0.997

Please list viability score recorded for the compound CC(=O)NNC(=O)c1ccncc1
0.996

Indicate the recorded viability score value for this compound: CC(C)c1noc(CN2CCC(n3nc(C(F)(F)F)n(C)c3=O)CC2)n1
1

Fill in reported viability score for this entry: O=S(=O)(Nc1ccc(-c2nc3cccnc3s2)cc1)c1cccs1
0.672

###

Tested on: RAW-Dual (murine macrophage reporter line)
Assay: IRF reporter (Lucia luciferase) activity fold change vs agonist alone; higher = enhanced IRF activity
Details: modulator concentration 10 µM; agonist: LPS 0.1 ug/mL
Readout: IRF reporter
// return just the number, without any unit appended

Please review the entries below; each comes with its answer.
Cl.OC(CCCN1CCCCC1)(c1ccccc1)c1ccccc1 ... 1.1
COc1ccc(CNC(=O)NCC#CCOc2cccc(C(F)(F)F)c2)cc1OC ... 1.09
NNC(=O)c1ccncc1 ... 1.42
COc1ccc(-c2csc(NC(=O)CCc3ccccc3)c2C(=O)O)cc1 ... 1.51

Specify IRF reporter for CC(C)CN(C[C@@H](O)[C@H](Cc1ccccc1)NC(=O)O[C@H]1CCOC1)S(=O)(=O)c1ccc(N)cc1 and stop.
1.29

Answer with the recorded IRF reporter for the compound listed here: O=c1c(-c2ccccc2)coc2cc(O)ccc12
1

# return recorded IRF reporter for entry CNC(=O)c1ccccc1Sc1ccc2c(/C=C/c3ccccn3)n[nH]c2c1
0.485

Give IRF reporter for Cc1cc(=O)n2c(-c3cccc(NC(=O)C4CCCO4)c3)csc2n1 (stereo unspecified)
1.04

Please list IRF reporter recorded for the compound Cc1c(C)n2c3c(=O)n(Cc4ccccc4F)c(=O)n(C)c3nc2n1CCCN1CCOCC1
1.06

Tell us which IRF reporter value is on record for CCc1cc(=O)oc2c(C)c(OCC(=O)c3ccc(OC)cc3)ccc12
1.45

Determine its reported IRF reporter: CC1=NN(c2ccc(C)cc2)C(=O)C1=Cc1c(C)nn(-c2ccc(C)cc2C)c1O
1.21

Data origin, for the record: the supplement of paper PMC10646978
